These records show AC50 for Vasopressin V2 receptor (Homo sapiens).

Reference set (3 entries):
>  <Compound>
NC(N)=Nc1nc(CSCCC(N)=NS(N)(=O)=O)cs1

>  <AC50>
> 30 µM

$$$$
>  <Compound>
CN1CCc2cccc3c2[C@H]1Cc1ccc(O)c(O)c1-3

>  <AC50>
> 30 µM

$$$$
>  <Compound>
COC(=O)C1=C(C)NC(C)=C(C(=O)OC(C)C)C1c1cccc2nonc12 (stereo not given)

>  <AC50>
> 30 µM

$$$$

// for each compound below, give its AC50
1. CCCC(=O)N1CCCN(c2nc(N)c3cc(OC)c(OC)cc3n2)CC1
2. Oc1ncnc2[nH]ncc12

1. > 30 µM
2. > 30 µM

// for each compound below, give its AC50
1. O=C(O)CCCc1ccccc1
2. C[N+](C)(C)CCOC(N)=O
3. O=P(O)(O)C(O)(Cc1cccnc1)P(=O)(O)O
4. CC(N)Cc1ccccc1 (stereo not given)
5. C=C1CC[C@@]2(O)[C@H]3Cc4ccc(O)c5c4[C@@]2(CCN3CC2CC2)[C@H]1O5
6. CC(C(=O)O)c1ccc(N2CC=CC2)c(Cl)c1 (stereo not given)
7. COc1ccc(C(=O)NCc2ccc(OCCN(C)C)cc2)cc1OC [ITOPRIDE]
8. CC[C@]1(O)C[C@@H]2CN(CCc3c([nH]c4ccccc34)[C@@](C(=O)OC)(c3cc4c(cc3OC)N(C)[C@H]3[C@@](O)(C(N)=O)[C@H](O)[C@]5(CC)C=CCN6CC[C@]43[C@@H]65)C2)C1

1: > 30 µM; 2: > 10 µM; 3: > 30 µM; 4: > 30 µM; 5: > 30 µM; 6: > 30 µM; 7: > 30 µM; 8: > 30 µM

// for each compound below, give its AC50
1. CN1C(=O)CC(=O)N(c2ccccc2)c2cc(Cl)ccc21
2. CC(C)NCC1CCc2cc(CO)c([N+](=O)[O-])cc2N1 (stereo not given)

1: > 10 µM; 2: > 10 µM

// for each compound below, give its AC50
1. CCCCC(C)(O)C/C=C/[C@H]1[C@H](O)CC(=O)[C@@H]1CCCCCCC(=O)OC (stereo not given in full)
2. CCCCOc1cc(C(=O)NCCN(CC)CC)c2ccccc2n1
3. CCN(CC)CCNC(=O)c1cc(Cl)c(N)cc1OC [METOCLOPRAMIDE]
4. NS(=O)(=O)c1cc(-c2nnn[nH]2)c(NCc2cccs2)cc1Cl [AZOSEMIDE]
5. CCc1nn(CCCN2CCN(c3cccc(Cl)c3)CC2)c(=O)n1CCOc1ccccc1

["> 30 µM", "> 30 µM", "> 30 µM", "> 30 µM", "> 30 µM"]
